Please provide measured apparent KD of K4 kissing-loop reporter for the entries that follow.
- Tested on: K4 kissing-loop RNA reporter;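 note: bound reporter read as fluorescence of individual clusters on recovered sequencing chips by microscopy, with normalized cluster intensities fitted with a binding model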
- assay-comment: apparent KD of K4 kissing-loop reporter; higher = weaker reporter binding
- particulars: Eterna round: R107; input ligand: theophylline 20 uM
// unit must come after the numeric part

IN: // lookup apparent KD of K4 kissing-loop reporter for CGAUGUUCCUGGGAUACCAGUCGGAGUCUCAGAGCUCGGAGUGAUGUUCUGGGAUGUUUCGGCCCUUGGCAGCUCUGGGACUCCU [#2 Exclusion - Theophylline B Attempt #22 (HarryS)]
OUT: 840 nM

IN: // lookup apparent KD of K4 kissing-loop reporter for AGGAUGUAGUGAUGUUAUAUAAGAAGUAAACGAGGACCGGUACGGCCGCCACUCGAAGCGGCUACUAGCGCGUUGCGAGGUGCGC [ExTryptoA.Cc]
OUT: 370 nM

IN: // lookup apparent KD of K4 kissing-loop reporter for UUUAUAUAGUCGGCCGCCACUGGAUUAAUAUUUGUAUAAUCUAGAUCAAAGUGAUGUUUUGAGUCCAGGACCGGGACAUUUGUUA [JR_ExcTryptoB_Sub006]
OUT: 525 nM

Hey, just so you know, these numbers are from the supplement of paper PMC9170038.
